Procedure summary: Mouse PK test of peptides (intravenous and oral administration)
Reported conditions: male, C57BL/6J, in vivo, iv, 20 mg/kg
Positions of bridges follow the written chain, without caps; N, C: chain ends. Non-standard residues stand in square brackets, D forms with d. Residues, ends and D or L forms follow the SMILES beside them. *: point of attachment. NMeF = CN[C@@H](Cc1ccccc1)C(=O)O; NMeI = CC[C@H](C)[C@H](NC)C(=O)O; NMeL = CN[C@@H](CC(C)C)C(=O)O; NMeA = CN[C@@H](C)C(=O)O; Piperidide = C1CCN(*)CC1; NPrGly = CCCNCC(=O)O; Sar = CNCC(=O)O; tBu = CC(C)(C)*
The threshold is 0.5 L/kg. Values of Vd beneath it are tagged True; values meeting or exceeding it are tagged False.

Molecule	Classification
CCCN1CC(=O)N(C)[C@@H](CC(C)C)C(=O)N[C@@H](COC(C)(C)C)C(=O)N(C)[C@@H](CC(C)C)C(=O)N[C@H](C(=O)N2CCCCC2)CC(=O)N[C@H](C)C(=O)N(C)[C@@H](C)C(=O)N(C)[C@@H](Cc2ccccc2)C(=O)N(C)[C@@H](CC(C)C)C(=O)N[C@@H]([C@@H](C)O)C1=O [DP-547] ([dA][NMeA][NMeF][NMeL]T[NPrGly][NMeL]S(tBu)[NMeL]D-Piperidide; lactam N-10)	False
CC[C@H](C)[C@H](NC(=O)[C@@H]1CCCN1C(=O)[C@@H]1CC(=O)N[C@@H](C)C(=O)N[C@@H](CC(C)C)C(=O)N(C)[C@@H]([C@@H](C)CC)C(=O)N[C@@H](C(C)C)C(=O)N(C)[C@@H](Cc2ccccc2)C(=O)N[C@@H](CC(C)C)C(=O)N(C)[C@@H](Cc2ccccc2)C(=O)N1)C(=O)N1CCCCC1 [DP-965] (AL[NMeI]V[NMeF]L[NMeF]DPI-Piperidide; lactam N-8)	True
CCCN1CC(=O)N(C)[C@@H](CC(C)C)C(=O)N[C@@H]([C@@H](C)O)C(=O)N(C)[C@@H](C)C(=O)N(C)[C@@H](CC(C)C)C(=O)N(C)[C@@H]([C@@H](C)CC)C(=O)N[C@@H](COC(C)(C)C)C(=O)N[C@H](C(=O)N2CCCCC2)CC(=O)N(C)[C@@H](C)C(=O)N(C)[C@@H](Cc2ccccc2)C1=O [DP-540] ([NMeA][NMeF][NPrGly][NMeL]T[NMeA][NMeL][NMeI]S(tBu)D-Piperidide; lactam N-10)	False
CC(C)C[C@@H]1NC(=O)[C@H](Cc2ccccc2)N(C)C(=O)[C@H](Cc2ccccc2)N(C)C(=O)[C@H](CC(C)C)NC(=O)[C@H](C)N(C)C(=O)[C@H]([C@@H](C)O)NC(=O)[C@H](C)N(C)C(=O)C[C@@H](C(=O)N2CCCCC2)NC(=O)[C@H](CC(C)C)N(C)C1=O [DP-125] ([NMeA]T[NMeA]L[NMeF][NMeF]L[NMeL]D-Piperidide; lactam N-9)	False
CC[C@H](C)[C@H]1C(=O)N[C@H](C(=O)N2CCCCC2)CC(=O)N[C@H](C(C)C)C(=O)N(C)[C@@H](Cc2ccccc2)C(=O)N(C)[C@@H](CC(C)C)C(=O)N[C@@H]([C@@H](C)O)C(=O)N(C)CC(=O)N(C)[C@@H](CC(C)C)C(=O)N[C@@H](COC(C)(C)C)C(=O)N1C [DP-265] ([dV][NMeF][NMeL]T[Sar][NMeL]S(tBu)[NMeI]D-Piperidide; lactam N-9)	False

These entries and their values trace back to patent US9409952B2.
